Target: T1, 4H1828-AA
T1 chain: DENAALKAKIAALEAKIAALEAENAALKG
Assay: two-hybrid library CCmax;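 note: natural log of median RNA to DNA barcode read ratio; higher means stronger binding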
Details: mean of both orientations
Would you mind telling me the reported interaction score of each entry?
One number for each entry.

Below, 4 binders whose answers are already recorded.
1. DENAALKAEIAALKAEIAALKAKNAALEG [4H1615-AA] | -1.78
2. DEIAALEAENAALEAKIAALKAKNAALEG [4H175-AA] | -1.69
3. DENAALKAEIAALKAKNAALEAEIAALKG [4H1650-AA] | -1.48
4. DENAALKAKIAALEAENAALKAKIAALEG [4H1821-AA] | -2.13

Lab note: next binder to report on.
# input Param item = DENAALKAENAALKAKIAALEAKIAALEG [4H1765-AA] ; retrieve measured interaction score.
# output -0.973

The measurements presented in this section are drawn from paper PMC10397247.
